Target: soluble recombinant variant of human uPAR (suPAR) (human) (UniProt Q03405)
Sequence (Q03405 23-299, change not shown): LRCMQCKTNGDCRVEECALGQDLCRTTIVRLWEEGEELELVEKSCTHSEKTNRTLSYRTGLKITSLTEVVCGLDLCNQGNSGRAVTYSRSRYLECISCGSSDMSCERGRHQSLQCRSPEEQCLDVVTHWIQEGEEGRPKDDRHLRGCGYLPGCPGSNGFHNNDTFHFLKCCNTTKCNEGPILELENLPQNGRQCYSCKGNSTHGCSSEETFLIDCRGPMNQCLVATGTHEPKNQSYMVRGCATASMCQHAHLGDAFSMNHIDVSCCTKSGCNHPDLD
Experiment: SPR (Biacore), ligand over immobilised neuramimidase-treated human suPAR
Non-standard residues stand in square brackets, D forms with d. No end group written: not given here. Cha = N[C@@H](CC1CCCCC1)C(=O)O
The entries below are paired with their reported Relative kdiss (relative to GFD).
Please respond with just the number, no unit label.

[[record]]
binder = "DXFSRYLWS (D-Asp at 1; beta-cyclohexyl-L-alanine (Cha) at 2; D-Arg at 5) [AE107]"
recorded_metric = "Relative kdiss (relative to GFD)"
value_measured = 63.1

[[record]]
binder = "SLNFSQYLWS [AE68]"
recorded_metric = "Relative kdiss (relative to GFD)"
value_measured = 92.1

[[record]]
binder = "DFF[dS][dR]YLWS [AE112]"
recorded_metric = "Relative kdiss (relative to GFD)"
value_measured = 12.9


q: Output measured Relative kdiss (relative to GFD) for this item: LNF[dS]QYLWS [AE111]
a: 7.5

q: Assign Relative kdiss (relative to GFD) to the following record: DXFSRYLWS (beta-cyclohexyl-L-alanine (Cha) at 2; D-Arg at 5) [AE106]
a: 18.7

q: Please look at this binder and report its Relative kdiss (relative to GFD): DXFSRYLWS (beta-cyclohexyl-L-alanine (Cha) at 2; D-Ser at 4; D-Arg at 5) [AE105]
a: 1.5

q: Tell me Relative kdiss (relative to GFD) reported for SL[Cha]F[dS]QYLWS [Lcha]
a: 24.9

q: // Input: AE118 (also: lactam at chain A 11 at chain B 10 to a chain's C-terminus, also called [DChaFsrYLWSG]2-K; dimer AE118) peptide 1: D[Cha]F[dS][dR]YLWSGK peptide 2: D[Cha]F[dS][dR]YLWSG . Output its Relative kdiss (relative to GFD) only.
a: 0.28

q: Answer with reported Relative kdiss (relative to GFD) of DXFSRYLWS (beta-cyclohexyl-L-alanine (Cha) at 2; D-Ser at 4) [AE110]
a: 2
